Values from ChEMBL document CHEMBL3885861

Species on record: Rattus norvegicus
Experiment: Open TG-GATES - Regimen: Daily Repeat
Assay type: toxicity, organism-based, Sprague-Dawley
Set-up: regimen Daily Repeat, gender Male, age 6 weeks
Conditions: in vivo, po, 1000 mg/kg, 72 h, tissue Blood, route gavage, dose level High, time 3 day
# strict inequality: APTT < 20 s yields met, everything else yields not met

Study these solved cases before continuing.
Problem: Check if APTT falls below 20 s for O=C(OC[C@H]1O[C@@H](OC(=O)c2cc(O)c(O)c(OC(=O)c3cc(O)c(O)c(O)c3)c2)[C@H](OC(=O)c2cc(O)c(O)c(OC(=O)c3cc(O)c(O)c(O)c3)c2)[C@@H](OC(=O)c2cc(O)c(O)c(OC(=O)c3cc(O)c(O)c(O)c3)c2)[C@@H]1OC(=O)c1cc(O)c(O)c(OC(=O)c2cc(O)c(O)c(O)c2)c1)c1cc(O)c(O)c(OC(=O)c2cc(O)c(O)c(O)c2)c1 .
Result: met

Problem: Check if APTT falls below 20 s for COC(=O)C1=C(C)NC(C)=C(C(=O)OC)C1c1ccccc1[N+](=O)[O-] .
Result: not met

Problem: Check if APTT falls below 20 s for CN/C(=N/CCSCc1nc[nH]c1C)NC#N .
Result: met

Note: attention shifts to another entry.
Problem: Check if APTT falls below 20 s for Cc1nnc2n1-c1ccc(Cl)cc1C(c1ccccc1Cl)=NC2 .
Result: met
